# Experimental target: Torsin-1A-interacting protein 1 (Homo sapiens) (UniProt Q5JTV8)
# Sequence (Q5JTV8 whole entry, looked up): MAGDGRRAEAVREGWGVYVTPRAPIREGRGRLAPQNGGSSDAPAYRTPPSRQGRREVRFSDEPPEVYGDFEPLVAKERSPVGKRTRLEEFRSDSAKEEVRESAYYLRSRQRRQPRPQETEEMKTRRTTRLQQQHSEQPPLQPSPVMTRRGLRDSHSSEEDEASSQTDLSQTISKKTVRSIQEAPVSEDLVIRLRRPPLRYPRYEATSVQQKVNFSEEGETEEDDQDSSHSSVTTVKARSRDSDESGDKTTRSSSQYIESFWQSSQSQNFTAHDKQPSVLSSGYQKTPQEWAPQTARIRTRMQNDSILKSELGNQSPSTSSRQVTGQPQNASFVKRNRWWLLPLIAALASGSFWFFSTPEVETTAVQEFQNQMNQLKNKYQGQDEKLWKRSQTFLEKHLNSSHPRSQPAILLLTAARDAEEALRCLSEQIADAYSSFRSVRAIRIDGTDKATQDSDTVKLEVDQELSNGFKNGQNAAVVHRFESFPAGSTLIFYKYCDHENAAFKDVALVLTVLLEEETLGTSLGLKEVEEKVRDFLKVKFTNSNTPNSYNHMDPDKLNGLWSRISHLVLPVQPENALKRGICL
# Assay overview: LAP1 binders from COS7 cell lysate, primary screen, small-molecule microarray, 635/667 nm fluorescence (AID 1116)
# Details: COS7-hLAP1 lysate binding, 635 nm fluorescence, higher = more signal
Quick rule for you: composite z-score at 0.3 or higher means satisfied, lower means not satisfied.

Can COC(=O)[C@H](C)NC(=O)CCC1CC(OC(=O)NCc2ccc3c(c2)OCO3)CC2(CCCC(COC(=O)NCCc3ccccc3OC)O2)O1 (some centres undefined) be said to have composite z-score at or above 0.3?
satisfied

Can "COC(=O)CC=C[C@@H](C)[C@@H](C=NOC[C@@H](O)[C@H]1O[C@@H]2OC(C)(C)O[C@@H]2[C@H]1O)NS(=O)(=O)c1ccc(C)cc1" be said to have composite z-score at or above 0.3?
not satisfied

Values compiled from PubChem BioAssay.
